- tgt: BTK C481S (His-TEV-hsBTK(328-659)(C481S)) (Homo sapiens (Human), UniProt Q06187, C481S)
- Sequence (Q06187 328-659 C481S): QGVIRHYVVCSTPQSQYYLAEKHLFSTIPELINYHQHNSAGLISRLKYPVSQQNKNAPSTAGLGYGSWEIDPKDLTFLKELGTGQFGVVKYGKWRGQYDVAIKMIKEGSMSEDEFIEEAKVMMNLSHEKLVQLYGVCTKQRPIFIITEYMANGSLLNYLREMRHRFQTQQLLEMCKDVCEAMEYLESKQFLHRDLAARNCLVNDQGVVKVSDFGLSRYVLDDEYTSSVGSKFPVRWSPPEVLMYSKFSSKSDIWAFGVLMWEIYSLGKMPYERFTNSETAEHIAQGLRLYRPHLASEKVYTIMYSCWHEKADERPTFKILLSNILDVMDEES
- testSummary: Assay B: microfluidic off-chip mobility shift assay against BTK C481S enzyme
- condition: BTK C481S mutant
- Method: The mechanics of the assay platform are described by the vendor (PerkinElmer, Hopkinton, Mass.) on their website at the following URL: http://caliperls.com. 5 uL of enzyme buffer and 7.5 uL of ATP/KinKDR peptide substrate mix were added to Matrix (#4315) 384-well, sterile, flat-bottom polypropylene plates (Thermo Fisher Scientific, Hudson, N.H.) with 125 nL of serially diluted compounds prepared in 100% DMSO, and incubated for 90 min. at 25° C. […]
pIC50: −log10 of the molar value.
assayReadout: pIC50

Example results:
>  <compound>
CC(C)(C)c1noc(C(=O)NCc2ccc(-c3ccnc4[nH]c(-c5cccnc5)nc34)cc2F)n1 [Example 149]

>  <tgt>
BTK C481S (His-TEV-hsBTK(328-659)(C481S)) (Homo sapiens (Human), UniProt Q06187, C481S)

>  <pIC50>
> 7.00

$$$$
>  <compound>
Cn1cc(-c2nc3c(-c4ccc(CN5CCOc6cc(C7CC7)cc(F)c6C5=O)cc4CO)ccnc3[nH]2)cn1 [Example 38]

>  <tgt>
BTK C481S (His-TEV-hsBTK(328-659)(C481S)) (Homo sapiens (Human), UniProt Q06187, C481S)

>  <pIC50>
6.00 to 7.00

$$$$
>  <compound>
Cn1cc(-c2nc3c(-c4ccc(C(C)(C)NC(=O)c5nnc(C(C)(C)C)o5)c(F)c4)ccnc3[nH]2)cn1 [Example 104]

>  <tgt>
BTK C481S (His-TEV-hsBTK(328-659)(C481S)) (Homo sapiens (Human), UniProt Q06187, C481S)

>  <pIC50>
> 7.00

$$$$

Now look at this one.
**Q:** Given the entry Cc1cc(CNC(=O)c2noc(C(C)(C)C)n2)c(F)cc1-c1ccnc2[nH]c(-c3cnn(C)c3)nc12 [Example 77] , report its measured pIC50.
**A:** > 7.00
